Just for reference, patent US20200392150A1 is where these values come from.

tested on: MDA-MB-231; experiment: In vitro cell growth inhibition assay (MTT); type: cell-based, human; settings: MDA-MB-231 human breast cancer cell line, 48 h, MTT; read-out: IC50 MDA-MB-231
pIC50: −log10 of the molar value.
Readout name: pIC50

# Molecule, pIC50
rows = [
    ("C=C1C(=O)N(c2cc(OC)c(OC)c(OC)c2)[C@H]1c1ccc(OC)c(OP(=O)(OCc2ccccc2)OCc2ccccc2)c1", "< 4.70"),
    ("C=C1C(=O)N(c2cc(OC)c(OC)c(OC)c2)[C@H]1c1ccc(OC)c(OS(=O)(=O)N2CCOCC2)c1", "< 4.70"),
    ("C=C1C(=O)N(c2ccc(OC)cc2)[C@H]1c1ccc(OC)c(O)c1", "< 4.70"),
]

Which value of pIC50 has been reported for COc1ccc([C@H]2/C(=C/C[Si](C)(C)C)C(=O)N2c2cc(OC)c(OC)c(OC)c2)cc1O in the records? < 5.00

Given the entry COc1ccc([C@H]2/C(=C\C[Si](C)(C)C)C(=O)N2c2cc(OC)c(OC)c(OC)c2)cc1O , report its measured pIC50. < 5.00
